Item-by-item account of viability at 28.5 h, 10 µM
assay: in vitro; conditions: human, hela cells, % viability
Report the value in % with no unit label.

Worked cases, answers included:
- COCc1nc(NCCn2c(C)cc(C)nc2=O)cc(C2CCOC2)n1 (stereo not drawn): 92.6
- O=c1c2ccccc2nc2n1CCN(Cc1c(F)cccc1F)CC2: 88.7

Please look up its viability at 28.5 h, 10 µM: `O=C(CN1CCC(c2cccc(Cc3cccc(F)c3)n2)CC1)Nc1nccs1`
91.8

---

assay: in vitro; conditions: human, hela cells, % viability
Item-by-item account of viability at 28.5 h, 10 µM
Report the value in % with no unit label.

- O=C(/C=C/C=C/c1ccccc1)CC1(O)C(=O)N(Cc2cccc3ccccc23)c2ccccc21 (centres unmarked): 93.6
- O=C(O)c1ccc(S(=O)(=O)c2ccc(O)cc2)cc1: 95.2
- Cc1cccc(-c2noc(CCC(=O)NCC3CCCO3)n2)c1 (centres unmarked): 118
- COc1ccc(C)cc1NC(=O)Nc1nc(C)cs1: 83.3

Now examine the next entry.
Please look up its viability at 28.5 h, 10 µM: `CN1CCN(C(=O)c2ccc(-c3cnc(N)c(-c4ccc(O)cc4)n3)cc2F)CC1`
90.6
